# System: DB10033
# assay name: Antibiotic MIC tests
# Assay type: cell-based, Bacillus altitudinis
# run conditions: Bacillus altitudinis, 24 h, read-out: MIC, DB10033 24 hr
For each record, write down the corresponding log10 of MIC.
Base-10 log of MIC, unit µg/mL.

These recorded examples may help you get a feel for the data.
Name the recorded log10 of MIC for CO/N=C(\C(=O)N[C@@H]1C(=O)N2C(C(=O)O)=C(CSc3nc(=O)c(=O)[nH]n3C)CS[C@H]12)c1csc(N)n1 . 1.20

Name the recorded log10 of MIC for CN(C)c1ccc(O)c2c1C[C@H]1C[C@H]3[C@H](N(C)C)C(O)=C(C(N)=O)C(=O)[C@@]3(O)C(O)=C1C2=O . 0.30

Name the recorded log10 of MIC for CCC[C@@H]1C[C@@H](C(=O)N[C@@H]([C@H]2O[C@H](SC)[C@H](O)[C@@H](O)[C@H]2O)[C@H](C)Cl)N(C)C1 . -0.90

Name the recorded log10 of MIC for CC[C@H]1OC(=O)[C@H](C)[C@@H](O[C@H]2C[C@@](C)(OC)[C@@H](O)[C@H](C)O2)[C@H](C)[C@@H](O[C@@H]2O[C@H](C)C[C@H](N(C)C)[C@H]2O)[C@](C)(O)C[C@@H](C)CN(C)[C@H](C)[C@@H](O)[C@]1(C)O . -0.70

Name the recorded log10 of MIC for CO/N=C(\C(=O)N[C@@H]1C(=O)N2C(C(=O)[O-])=C(C[N+]3(C)CCCC3)CS[C@H]12)c1csc(N)n1 [Cefepime] . 1.81

Name the recorded log10 of MIC for O=C(O)c1cn(C2CC2)c2cc(N3CCNCC3)c(F)cc2c1=O . -0.90

Name the recorded log10 of MIC for [H]/N=C(\N/C(=N/[H])NCCCCCCNC(=N)NC(=N)Nc1ccc(Cl)cc1)Nc1ccc(Cl)cc1 . 0.00

Name the recorded log10 of MIC for C/C(=C\C(=O)OCCCCCCCCC(=O)O)C[C@@H]1OC[C@H](C[C@@H]2O[C@H]2[C@@H](C)[C@H](C)O)[C@@H](O)[C@H]1O . 0.90

Name the recorded log10 of MIC for NCC[C@H](O)C(=O)N[C@@H]1C[C@H](N)[C@@H](O[C@H]2O[C@H](CN)[C@@H](O)[C@H](O)[C@H]2O)[C@H](O)[C@H]1O[C@H]1O[C@H](CO)[C@@H](O)[C@H](N)[C@H]1O . -0.30

Attention now shifts to the item below.
Name the recorded log10 of MIC for O=C(N[C@H](CO)[C@H](O)c1ccc([N+](=O)[O-])cc1)C(Cl)Cl . 0.30
